Data provenance: patent US12077503B2

System: Galium (catchweed bedstraw, Galium aparine)
assay-summary: Test C preemergence
Format: in vivo
condition-description: 31 g ai/ha, 0 is no effect, 100 is complete control
Flag rule - Plant response rating (scale of 0 to 100), Galium less than 80 flags y; the remaining entries get n.

- O=C1NCC(c2ccc3c(c2)OC(F)(F)O3)C1C(=O)Nc1cccc(F)c1F (centres unmarked) [Compound 635]: y
- O=C1NCC(c2cccc(OC(F)(F)C(F)F)c2)C1C(=O)Nc1cccc(F)c1F (racemic) [Compound 697]: y
- O=C1NCC(c2cccc(OC(F)(F)C(F)F)c2)C1C(=O)Nc1ccc(F)c(F)c1F (racemic) [Compound 698]: n
- CN1CC(c2cccc(OC(F)F)c2)C(C(=O)Nc2cccc(F)c2F)C1=O (centres unmarked) [Compound 616]: n

----------
System: barnyardgrass (Echinochloa crus-galli)
assay-summary: Test B flooded paddy test
Type: in vivo
condition-description: Echinochloa crus-galli, 250 g ai/ha, Flood; 0 to 100 scale where 0 is no effect and 100 is complete control; read-out: Barnyardgrass plant response rating
readout-kind: pest or weed control at 250 g/ha

- CN1C[C@H](c2ccc(C(F)(F)F)cc2)[C@@H](C(=O)Nc2ccccc2-n2cncn2)C1=O: 0%
- CN1C[C@H](c2csc3c2CCCC3)[C@@H](C(=O)Nc2ccccc2S(C)(=O)=O)C1=O: 50%
- CN1C[C@H](c2cccc(C#N)c2)[C@@H](C(=O)Nc2ccccc2F)C1=O: 60%
- O=C1NC[C@H](c2ccc(OC(F)F)cc2)[C@H]1C(=O)Nc1ccc(F)cc1F: 15%
- Cc1ccc([C@H]2CN(C)C(=O)[C@@H]2C(=O)Nc2cccc(F)c2C)cc1: 75%
- CN1C[C@H](c2ccc(C(F)(F)F)cc2)[C@@](F)(C(=O)Nc2cccc(F)c2F)C1=O (racemic): 0%
- O=C(Nc1cccc(F)c1F)C1C(=O)N(CC(F)F)CC1c1cccc(C(F)(F)F)c1 (centres unmarked): 0%
- CC(C)=CC1CNC(=O)C1C(=O)Nc1ccccc1S(C)(=O)=O (centres unmarked): 30%

----------
System: barnyardgrass (Echinochloa crus-galli)
assay-summary: Test A postemergence
Format: in vivo
condition-description: Echinochloa crus-galli, post-emergence, 240 h, 125 g ai/ha, postemergence, visual injury vs untreated controls after approx. 10 d; 0 = no effect, 100 = complete control; read-out: Barnyardgrass plant response rating (0 to 100 scale)
Listing of recorded pest or weed control at 125 g/ha by entry.
readout-kind: pest or weed control at 125 g/ha (%)

* CSc1ccccc1NC(=O)[C@H]1C(=O)N(C)CC[C@@H]1c1ccc(C(F)(F)F)cc1 | 0
* CSc1ccccc1NC(=O)[C@H]1C(=O)N(C)C[C@@H]1c1ccc(C)cc1 | 100
* CCc1cc([C@H]2CNC(=O)[C@@H]2C(=O)Nc2cccc(F)c2F)cs1 | 80
* Cc1cc([C@H]2CN(C)C(=O)[C@@H]2C(=O)Nc2ccccc2F)on1 | 0
* CN1C[C@H](c2cccc(C(F)(F)F)c2)[C@@H](C(=O)Nc2ccccc2CCO)C1=O (racemic) | 60
* Cc1nc([C@H]2CNC(=O)[C@@H]2C(=O)Nc2ccccc2F)cs1 | 0
* Cc1c(F)cccc1NC(=O)[C@H]1C(=O)N(C)C[C@@H]1c1ccc(F)cc1 | 90

----------
System: giant foxtail (Setaria faberi)
assay-summary: Test G Post-Emergence Protocol
Type: in vivo
condition-description: Setaria faberi, post-emergence, 312 h, 62.5 g ai/ha, evaluated after 13 days, read-out: Foxtail, Giant damage rating (100=total damage to plant; 0=no damage to plant)
readout-kind: pest or weed control at 62.5 g/ha (%)

* CN1C[C@H](c2cccc(C(F)F)c2)[C@@H](C(=O)Nc2ccccc2F)C1=O (racemic) | 70
* CC(C)c1cc([C@H]2CN(C)C(=O)[C@@H]2C(=O)Nc2cccc(F)c2F)cnn1 (racemic) | 0
* Cc1ncsc1NC(=O)[C@@H]1C(=O)N(C)C[C@H]1c1ccc(C(F)(F)F)cc1 (racemic) | 10
* CN1C[C@H](c2ccc(F)c(OCC(F)(F)F)c2)[C@@H](C(=O)Nc2ccccc2F)C1=O (racemic) | 60
* CN1C[C@@H](c2cc(Cl)cc(C(F)(F)F)c2)[C@H](C(=O)Nc2ccccc2F)C1=O (racemic) | 70
* Cc1cc(NC(=O)[C@@H]2C(=O)N(C)C[C@H]2c2ccc(C(F)(F)F)cc2)no1 (racemic) | 0
* Cc1ccncc1NC(=O)[C@@H]1C(=O)N(C)C[C@H]1c1ccc(C(F)(F)F)cc1 (racemic) | 0

----------
System: giant foxtail (Setaria faberi)
assay-summary: Test G Pre-Emergence Protocol
Type: in vivo
condition-description: Setaria faberi, pre-emergence, 312 h, 250 g ai/ha, evaluated after 13 days, read-out: Foxtail, Giant damage rating (100=total damage to plant; 0=no damage to plant)
readout-kind: pest or weed control at 250 g/ha

* C=Cc1cccc([C@@H]2CN(C)C(=O)[C@H]2C(=O)Nc2cccc(F)c2F)c1 (racemic) [Compound 1762] | 80%
* Cc1cc([C@H]2CN(C)C(=O)[C@@H]2C(=O)Nc2ccccc2S(C)(=O)=O)cc(C(F)(F)F)c1 (racemic) [Compound 1795] | 90%
* CN1C[C@H](c2ccc(F)c(OCC(F)(F)F)c2)[C@@H](C(=O)Nc2ccccc2F)C1=O (racemic) [Compound 1456] | 90%
* COc1cc(C2CN(C)C(=O)C2C(=O)Nc2cccc(F)c2F)cc(Cl)c1F (stereo not shown) [Compound 1705] | 80%
* CN1C[C@@H](c2ccc(C(F)(F)F)cc2)[C@H](C(=O)Nc2nnnn2C)C1=O (racemic) [Compound 1618] | 20%
* Cc1cncc(NC(=O)[C@@H]2C(=O)N(C)C[C@H]2c2ccc(C(F)(F)F)cc2)n1 (racemic) [Compound 1647] | 70%
* CN1C[C@@H](c2ccc(C(F)(F)F)cc2)[C@H](C(=O)Nc2nccs2)C1=O (racemic) [Compound 1554] | 20%

----------
Tested on: Kochia (Kochia scoparia)
assay-summary: Test A postemergence
Assay type: in vivo
condition-description: 125 g ai/ha, postemergence; visual rating after approx. 10 d, 0 to 100 scale (0 no effect, 100 complete control)
readout-kind: Plant response rating, Kochia

* C=CCOc1cccc(C2CNC(=O)C2(CC=C)C(=O)Nc2cccc(F)c2F)c1 (centres unmarked) | 0
* C#CCN1CC(c2cccc(C(F)(F)F)c2)C(C(=O)Nc2ccccc2F)C1=O (centres unmarked) | 0
* CCc1cccc(C2CN(C)C(=O)C2C(=O)Nc2ccc(F)cc2F)c1 (centres unmarked) | 50
* CN1CC(c2cc(F)cc(F)c2)C(C(=O)Nc2cccc3c2CCCC3)C1=O (centres unmarked) | 0
* CC(C)Oc1cccc(C2CNC(=O)C2C(=O)Nc2cccc(F)c2F)c1 (centres unmarked) | 30

----------
Listing of recorded pest or weed control at 62.5 g/ha by entry.
Tested on: velvetleaf (Abutilon theophrasti)
assay-summary: Test G Pre-Emergence Protocol
Assay type: in vivo
condition-description: Abutilon theophrasti, pre-emergence, 312 h, 62.5 g ai/ha, evaluated after 13 days, 100=total damage to plant, 0=no damage to plant, read-out: Velvetleaf damage rating
readout-kind: pest or weed control at 62.5 g/ha

- CN1C[C@@H](c2ccc(CF)cc2)[C@H](C(=O)Nc2cccc(F)c2F)C1=O (racemic): 60%
- CN1C[C@H](c2ccc(C(F)(F)F)cc2)[C@@H](C(=O)Nc2cccc3ccsc23)C1=O (racemic): 0%
- CN1C[C@H](c2ccc(Cl)cc2)[C@@H](C(=O)Nc2cnccc2C(F)(F)F)C1=O: 40%

----------
Listing of recorded pest or weed control at 125 g/ha by entry.
Test system: Galium (catchweed bedstraw, Galium aparine)
assay-summary: Test A postemergence
Assay type: in vivo
condition-description: Galium, post-emergence, 240 h, 125 g ai/ha, postemergence, visual injury vs untreated controls after approx. 10 d; 0 = no effect, 100 = complete control; read-out: Galium plant response rating (0 to 100 scale)
readout-kind: pest or weed control at 125 g/ha (%)

* Cn1ccc2ccc([C@H]3CNC(=O)[C@@H]3C(=O)Nc3ccccc3F)cc21 | 0
* Cc1cc([C@H]2CN(C)C(=O)[C@@H]2C(=O)Nc2cccc(F)c2F)no1 | 0
* CN1C[C@H](c2ccc(C(F)F)cc2)[C@@H](C(=O)Nc2ccc(F)c(F)c2F)C1=O | 70
* Cc1cc([C@H]2CN(C)C(=O)[C@@H]2C(=O)Nc2ccccc2F)on1 | 0
* COCOCc1ccccc1NC(=O)[C@H]1C(=O)N(C)C[C@@H]1c1cccc(C(F)(F)F)c1 (racemic) | 0
* CN1C[C@H](c2ccc(F)c(C#N)c2)[C@@H](C(=O)Nc2cccc(F)c2F)C1=O | 40

----------
Listing of recorded pest or weed control at 250 g/ha by entry.
Tested on: barnyardgrass (Echinochloa crus-galli)
assay-summary: Test B flooded paddy test
Type: in vivo
condition-description: Echinochloa crus-galli, 250 g ai/ha, Flood; 0 to 100 scale where 0 is no effect and 100 is complete control; read-out: Barnyardgrass plant response rating
readout-kind: pest or weed control at 250 g/ha (%)

• CC(C)=CC1CNC(=O)C1C(=O)Nc1ccccc1F (stereo not shown) = 0
• Cc1ccc([C@H]2CNC(=O)[C@]2(Br)C(=O)Nc2cccc(F)c2F)cc1F (racemic) = 55
• COc1cc([C@H]2CN(C)C(=O)[C@@H]2C(=O)Nc2cccc(F)c2F)cc(OC)c1OC = 50
• O=C(Nc1ccccc1F)[C@H]1C(=O)N(CC(F)F)C[C@@H]1c1cccc(C(F)(F)F)c1 = 0
• O=C1NC[C@H](c2cccc(I)c2)[C@H]1C(=O)Nc1ccccc1F = 0
• Cn1ccc2ccc([C@H]3CNC(=O)[C@@H]3C(=O)Nc3ccccc3F)cc21 = 0
• Cc1cc([C@H]2CNC(=O)[C@@H]2C(=O)Nc2ccc(F)cc2F)ccc1C(F)(F)F = 0
• O=C1NC[C@H](c2csc(C(F)F)c2)[C@H]1C(=O)Nc1cccc(F)c1F = 60
• O=C(Nc1cccc(F)c1F)[C@H]1C(=O)N(CC(F)F)C[C@@H]1c1cccc(C(F)(F)F)c1 = 15
• CN1C[C@H](c2cccc(C#N)c2)[C@@H](C(=O)Nc2ccc(F)c(F)c2F)C1=O = 75
• Cc1c(F)cccc1NC(=O)[C@H]1C(=O)N(C)C[C@@H]1c1ccc2c(c1)C(F)(F)C(F)(F)O2 = 50
• CN1C[C@H](c2ccc(C(F)F)cc2)[C@@H](C(=O)Nc2ccc(F)c(F)c2F)C1=O = 80
• CN1CC(c2cccc(C(F)(F)F)c2)C(C(=O)Nc2ccccc2C(C)(C)O)C1=O (stereo not shown) = 45
• Cc1ccc([C@H]2CN(C)C(=O)[C@@H]2C(=O)Nc2cc(F)c(F)c(F)c2F)cc1 = 40
• CN1C[C@H](c2csc3ccccc23)[C@@H](C(=O)Nc2cccc(F)c2F)C1=O = 45
• CN1C[C@H](c2ccccc2)[C@@H](C(=O)Nc2cccc(F)c2F)C1=O = 90
